Where do these numbers come from? They come from ChEMBL document CHEMBL1671663.

# ASSAY_SUMMARY: AUC in CD1 mouse at 5 mg/kg, iv by liquid chromatography/mass spectroscopy
# Assay type: ADME, organism-based
# Set-up: dose 5 mg/kg, route intravenous
# STUDY_CONDITIONS: plasma
PARAMETER: AUC (µg·h/mL)
Numeric only. Scale: µg·h/mL

Which measured AUC value corresponds to CCCC[C@H](CN(O)C=O)C(=O)N1CCC[C@H]1C(=O)Nc1ccc(F)c[n+]1[O-] ?
2.69

* * *

# ASSAY_SUMMARY: Tmax in CD1 mouse at 20 mg/kg, po by liquid chromatography/mass spectroscopy
# Assay type: ADME, organism-based
# Set-up: dose 20 mg/kg, route oral
# STUDY_CONDITIONS: in vivo
PARAMETER: Tmax (min)
Numeric only. Scale: min

Which measured Tmax value corresponds to CCCC[C@H](CN(O)C=O)C(=O)N1CCC[C@H]1C(=O)Nc1ccc(F)c[n+]1[O-] ?
30

* * *

# ASSAY_SUMMARY: AUC in CD1 mouse at 20 mg/kg, po by liquid chromatography/mass spectroscopy
# Assay type: ADME, organism-based
# Design: dose 20 mg/kg, route oral
# STUDY_CONDITIONS: plasma
PARAMETER: AUC (ng·h/mL)
Numeric only. Scale: ng·h/mL

Which measured AUC value corresponds to CCCC[C@H](CN(O)C=O)C(=O)N1CCC[C@H]1C(=O)Nc1ccc(F)c[n+]1[O-] ?
5700

* * *

# ASSAY_SUMMARY: Clearance in CD1 mouse at 5 mg/kg, iv by liquid chromatography/mass spectroscopy
# Type: ADME, organism-based
# Parameters: dose 5 mg/kg, route intravenous
# STUDY_CONDITIONS: in vivo
PARAMETER: clearance (mL/min/kg)
Numeric only. Scale: mL/min/kg

Which measured clearance value corresponds to CCCC[C@H](CN(O)C=O)C(=O)N1CCC[C@H]1C(=O)Nc1ccc(F)c[n+]1[O-] ?
30.8
